Each recorded value in this set is attributed to PubChem BioAssay (NCI).

# Tested on: UO-31 renal
# Protocol description: NCI tumour cell line growth inhibition, 48 h
Quantity measured: TGI (µM)
Kindly provide the numeric value in µM only, without the unit symbol.

## Task Any idea what TGI came out for `Cc1ccccc1-n1c(=O)nc2n(-c3ccc(C(C)(C)C)cc3)c3ccccc3cc-2c1=O` on UO-31 renal?
## Result 95.1

## Task Okay, and COC(=O)N1C=CC2=C(C)C3Nc4ccccc4C3C(C)=C2C1 (stereo not given) ?
## Result 3.88

## Task Same again, this time with `O=C(NCCc1nccs1)c1cnc2c(S)cccc2c1`
## Result 16

## Task Continue with `CCc1n(Cc2ccc3ccccc3c2)cc[n+]1Cc1ccc2ccccc2c1`
## Result 8.86
